// provenance: PubChem BioAssay AID2060507

# Test system: 519858-162-T-J1-PDC complex spheroid viability
# assay-method-text: Anticancer human tumor 519858-162-T-J1-PDC patient-derived colon adenocarcinoma cell line growth inhibition [GQUAD]
# condition-label: second compound 0.1 µM; first compound 0.1 µM; active compounds read low
viability, T/C vs 90%: less than gives Criterion met; not less than gives Criterion not met.

Solved cases below.
Cc1cccc(N(C)C(=O)C2C(O)CCN2c2nc(C)cc(C(F)(F)F)c2C#N)c1 (stereo not given) + Cc1cnc(CNC(=O)c2c(=O)c3ccc(N4CCCN(C)CC4)nc3n3c2sc2ccccc23)cn1    Criterion met
C#Cc1c(F)ccc2cc(O)cc(-c3ncc4c(N5CC6CCC(C5)N6)nc(OCC56CCCN5CC(F)C6)nc4c3F)c12 (stereo not given) + CN(C)c1ccc(Nc2c3ccc(NC(=O)CCN4CCCC4)cc3nc3cc(NC(=O)CCN4CCCC4)ccc23)cc1    Criterion met
COc1cc(C2c3cc4c(cc3C(OC3OC5COC(C)OC5C(O)C3O)C3COC(=O)C23)OCO4)cc(OC)c1O (stereo not given) + Cc1cnc(CNC(=O)c2c(=O)c3ccc(N4CCCN(C)CC4)nc3n3c2sc2ccccc23)cn1    Criterion not met
CC1COCCN1c1cc(-c2ccnn2C)c2ccnc(-c3ccn[nH]3)c2n1 (stereo not given) + Cc1cnc(CNC(=O)c2c(=O)c3ccc(N4CCCN(C)CC4)nc3n3c2sc2ccccc23)cn1    Criterion met
COc1ncnc(C2CC2)c1-c1ncc2cnn(Cc3ccc(-c4nc(C(F)(F)F)cn4C(C)C)cc3)c2n1 + CN(C)c1ccc(Nc2c3ccc(NC(=O)CCN4CCCC4)cc3nc3cc(NC(=O)CCN4CCCC4)ccc23)cc1    Criterion not met

Data request: Please check: viability, T/C for CC1COCCN1c1cc(C2(O)CC3CCC(C2)O3)c2cnn(-c3ccn[nH]3)c2n1 (stereo not given) + CN(C)c1ccc(Nc2c3ccc(NC(=O)CCN4CCCC4)cc3nc3cc(NC(=O)CCN4CCCC4)ccc23)cc1 , strictly under 90% or not?
Data returned: Criterion met

Data request: Please check: viability, T/C for O=c1[nH]cc(F)c(=O)[nH]1 + Cc1[nH]c2ccc(F)cc2c1-c1nc2c3cccnc3c3ncccc3c2[nH]1 , strictly under 90% or not?
Data returned: Criterion not met

Data request: Please check: viability, T/C for C=CC(=O)N1CCN(c2nc(=O)n(-c3c(C)ccnc3C(C)C)c3nc(-c4c(O)cccc4F)c(F)cc23)C(C)C1 (stereo not given) + CN(C)c1ccc(Nc2c3ccc(NC(=O)CCN4CCCC4)cc3nc3cc(NC(=O)CCN4CCCC4)ccc23)cc1 , strictly under 90% or not?
Data returned: Criterion met

====

# System: 519858-162-T-J1-PDC complex spheroid viability
# assay-method-text: Anticancer human tumor 519858-162-T-J1-PDC cell line growth inhibition [GQUAD];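 further: spheroids exposed to compounds for 7 days; 100% = DMSO vehicle control viability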
# condition-label: second compound 3.16 µM; first compound 1 µM; active compounds read low
measured-parameter: viability, T/C (%)
Numbers only, in %.

COc1ncnc(C2CC2)c1-c1ncc2cnn(Cc3ccc(-c4nc(C(F)(F)F)cn4C(C)C)cc3)c2n1 + Cc1cnc(CNC(=O)c2c(=O)c3ccc(N4CCCN(C)CC4)nc3n3c2sc2ccccc23)cn1    30.3

Please state, for each entry, its recorded viability, T/C.
1. CC1COCCN1c1cc(C2(S(C)(=N)=O)CC2)nc(-c2ccnc3[nH]ccc23)n1 (configuration not stated) + Cc1cnc(CNC(=O)c2c(=O)c3ccc(N4CCCN(C)CC4)nc3n3c2sc2ccccc23)cn1
2. CC(C)n1c(=O)n(C)c2cnc3cc(F)c(-c4ccc(OCCCN5CCCCC5)nc4)cc3c21 + Cc1[nH]c2ccc(F)cc2c1-c1nc2c3cccnc3c3ncccc3c2[nH]1
3. C=CCn1c(=O)c2cnc(Nc3ccc(N4CCN(C)CC4)cc3)nc2n1-c1cccc(C(C)(C)O)n1 + CN(C)c1ccc(Nc2c3ccc(NC(=O)CCN4CCCC4)cc3nc3cc(NC(=O)CCN4CCCC4)ccc23)cc1
4. CC1COCCN1c1cc(C2(O)CC3CCC(C2)O3)c2cnn(-c3ccn[nH]3)c2n1 (configuration not stated) + Cc1cnc(CNC(=O)c2c(=O)c3ccc(N4CCCN(C)CC4)nc3n3c2sc2ccccc23)cn1

Data returned:
[56.4, 56.3, 67.6, 42.4]

Please state, for each entry, its recorded viability, T/C.
1. CC1COCCN1c1cc(-c2ccnn2C)c2ccnc(-c3ccn[nH]3)c2n1 (configuration not stated) + CN(C)c1ccc(Nc2c3ccc(NC(=O)CCN4CCCC4)cc3nc3cc(NC(=O)CCN4CCCC4)ccc23)cc1
2. O=C(c1cc(Cc2n[nH]c(=O)c3ccccc23)ccc1F)N1CCN(C(=O)C2CC2)CC1 + Cc1cnc(CNC(=O)c2c(=O)c3ccc(N4CCCN(C)CC4)nc3n3c2sc2ccccc23)cn1

Data returned:
92.4
39.2
